Biological target: bovine trypsin (Bos taurus)
Sequence (P00760 24-246): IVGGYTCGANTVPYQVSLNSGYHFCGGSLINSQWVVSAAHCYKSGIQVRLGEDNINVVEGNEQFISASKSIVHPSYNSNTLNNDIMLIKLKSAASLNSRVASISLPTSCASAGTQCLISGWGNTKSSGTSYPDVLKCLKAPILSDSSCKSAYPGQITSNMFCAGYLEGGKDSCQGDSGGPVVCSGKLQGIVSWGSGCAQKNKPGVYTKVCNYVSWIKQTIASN
Experiment: Trypsin inhibitory activity of peptides (BApNA hydrolysis, OD405; IC50, Ki, residual activity)
Format: biochemical
Conditions: trypsin 50 nM, BApNA 1.22 mM; read-out: IC50
Bridge positions count the residues as written; N and C are the ends. Square brackets hold non-standard residues; d marks the D form. Peptide text beside a SMILES is read from it. Abu = CC[C@H](N)C(=O)O
Property measured: pIC50
The read-out pIC50 is expressed as -log10 of concentration in moles per litre.

Inquiry: Respond only with pIC50 recorded for CC[C@@H]1NC(=O)[C@@H](N)CSSC[C@@H](C(=O)N[C@@H](Cc2ccccc2)C(=O)O)NC(=O)[C@H]([C@@H](C)CC)NC(=O)[C@@H]2CCCN2C(=O)[C@@H]2CCCN2C(=O)[C@H]([C@@H](C)CC)NC(=O)[C@H](CO)NC(=O)[C@H](CCCCN)NC(=O)[C@H]([C@@H](C)O)NC(=O)[C@H](C)NC(=O)[C@H](CCCNC(=N)N)NC1=O [BT74] (H-C[Abu]RATKSIPPICF-OH; disulfide 1-12; N-terminus and C-terminus assumed)
Reply text: 7.05
